Consider the following compounds; for each one, report its IC50.
tested.target: UniProtKB P23458
Sequence (P23458 whole entry): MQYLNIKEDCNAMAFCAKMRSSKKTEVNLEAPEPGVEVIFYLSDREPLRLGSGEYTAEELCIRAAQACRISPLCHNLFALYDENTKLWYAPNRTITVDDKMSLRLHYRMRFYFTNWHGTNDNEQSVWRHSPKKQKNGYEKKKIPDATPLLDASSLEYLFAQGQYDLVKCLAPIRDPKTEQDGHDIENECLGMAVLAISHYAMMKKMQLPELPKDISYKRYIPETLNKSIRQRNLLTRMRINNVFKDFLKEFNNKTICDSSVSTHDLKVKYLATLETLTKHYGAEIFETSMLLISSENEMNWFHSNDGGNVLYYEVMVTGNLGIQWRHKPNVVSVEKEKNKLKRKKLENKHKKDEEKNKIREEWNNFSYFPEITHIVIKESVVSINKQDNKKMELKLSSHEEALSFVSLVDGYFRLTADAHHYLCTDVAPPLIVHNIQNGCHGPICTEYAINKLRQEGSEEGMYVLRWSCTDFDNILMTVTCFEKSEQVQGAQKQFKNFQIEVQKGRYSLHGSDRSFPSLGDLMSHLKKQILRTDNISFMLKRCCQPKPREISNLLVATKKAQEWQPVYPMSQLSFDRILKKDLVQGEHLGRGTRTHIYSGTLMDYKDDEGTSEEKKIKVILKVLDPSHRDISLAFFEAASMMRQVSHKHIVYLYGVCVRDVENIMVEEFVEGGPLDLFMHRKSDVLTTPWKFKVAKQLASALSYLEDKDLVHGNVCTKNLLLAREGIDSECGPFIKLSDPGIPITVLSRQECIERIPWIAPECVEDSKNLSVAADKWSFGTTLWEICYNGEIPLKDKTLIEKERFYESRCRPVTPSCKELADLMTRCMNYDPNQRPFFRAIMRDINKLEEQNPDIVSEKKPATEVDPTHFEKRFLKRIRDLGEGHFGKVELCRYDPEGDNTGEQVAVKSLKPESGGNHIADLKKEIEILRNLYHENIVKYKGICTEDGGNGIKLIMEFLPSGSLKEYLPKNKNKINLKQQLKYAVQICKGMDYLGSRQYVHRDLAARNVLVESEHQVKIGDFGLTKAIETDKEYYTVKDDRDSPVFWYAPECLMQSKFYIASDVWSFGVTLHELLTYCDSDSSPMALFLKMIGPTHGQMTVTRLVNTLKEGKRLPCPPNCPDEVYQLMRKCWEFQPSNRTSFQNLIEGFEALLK
procedure.text: Analysis of JAK1 activity inhibition ability (ADP-Glo Kinase Assay)
Type: biochemical
applied.conditions: JAK1 enzyme, ADP-Glo luminescence, ATP 250 uM, IRS-itide substrate, 30° C. 40 minutes; read-out: IC50
Experimental: Test Example 1: Analysis of JAK1 Activity Inhibition Ability of Compound of Formula 1 (ADP-Glo™ Kinase Assay) A JAK inhibition ability of a compound according to the present invention was identified as follows. A control material and a test material were prepared for each concentration, in such a way that they were diluted by means of DMSO. […]

O=C(Nc1cc(-c2ccc(CC(=O)N3CCC3)cc2)c2cc[nH]c2n1)C1CC1 | 20 to 200 nM
N#CCC1(N2CC=C(c3cc(NC(=O)C4CC4)nc4[nH]ccc34)CC2)CN(C2CCN(C(=O)c3nc(C(F)(F)F)cs3)CC2)C1 | 20 to 200 nM
O=C(Nc1cc(-c2ccc(CNC(=O)N3CCOCC3)cc2)c2cc[nH]c2n1)C1CC1 | > 200 nM

List the reported IC50 of each compound below.
1. CCS(=O)(=O)Nc1c(F)cc(-c2cc(NC(=O)C3CC3)nc3[nH]ccc23)cc1F
2. CCS(=O)(=O)Nc1ccc(-c2cc(NC(=O)C3CC3)nc3[nH]c(C)cc23)cc1
3. O=C(Nc1cc(N2CCN(S(=O)(=O)N3CCOCC3)CC2)c2cc[nH]c2n1)C1CC1
4. O=C(Nc1cc(-c2ccc(NCC3CC3)cc2)c2cc[nH]c2n1)C1CC1
5. COc1ccc(S(=O)(=O)Nc2ccc(-c3cc(NC(=O)C4CC4)nc4[nH]ccc34)cc2)cn1

["20 to 200 nM", "> 200 nM", "> 200 nM", "20 to 200 nM", "< 20 nM"]
